# Measured On: human Y2 receptor (Homo sapiens)
# Construct: expressed in transfected cells; membrane fraction
# Sequence (P49146 1-381): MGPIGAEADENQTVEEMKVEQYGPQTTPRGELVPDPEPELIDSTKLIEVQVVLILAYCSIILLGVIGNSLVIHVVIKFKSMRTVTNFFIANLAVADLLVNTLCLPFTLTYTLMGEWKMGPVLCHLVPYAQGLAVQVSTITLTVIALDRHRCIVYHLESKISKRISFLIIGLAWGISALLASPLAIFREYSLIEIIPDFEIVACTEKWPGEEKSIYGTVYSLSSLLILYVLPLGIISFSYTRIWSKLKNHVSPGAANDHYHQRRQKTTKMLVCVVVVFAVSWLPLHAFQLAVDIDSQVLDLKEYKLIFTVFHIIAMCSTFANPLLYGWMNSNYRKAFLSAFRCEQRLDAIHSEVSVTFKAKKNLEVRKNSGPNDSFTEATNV
# Experiment Summary: Receptor Binding Assay (RBA) for Human Y2, [125I]-PYY displacement on hY2R/CHO membrane fraction
# Stated Conditions: IC50 of test compound/IC50 of PYY(3-36) (PYY(3-36) taken as 1)
Non-standard residues stand in square brackets, D forms with d. *: point of attachment. Cha = N[C@@H](CC1CCCCC1)C(=O)O; Isobutyryl = CC(C)C(=O)*; Abu = CC[C@H](N)C(=O)O; Aib = CC(C)(N)C(=O)O
Readout Kind: RBA IC50 Ratio
Respond numerically, and do not add a unit to the figure.

Query: Consider the substance Isobutanoyl-[Abu26, Cha27,36, Ser28, Aib31]-PYY(25-36) (Isobutyryl-R[Abu][Cha]SNL[Aib]TRQR[Cha]-NH2; SMILES CC[C@H](NC(=O)[C@H](CCCNC(=N)N)NC(=O)C(C)C)C(=O)N[C@@H](CC1CCCCC1)C(=O)N[C@@H](CO)C(=O)N[C@@H](CC(N)=O)C(=O)N[C@@H](CC(C)C)C(=O)NC(C)(C)C(=O)N[C@H](C(=O)N[C@@H](CCCNC(=N)N)C(=O)N[C@@H](CCC(N)=O)C(=O)N[C@@H](CCCNC(=N)N)C(=O)N[C@@H](CC1CCCCC1)C(N)=O)[C@@H](C)O) [compound No. 102] . State its measured RBA IC50 Ratio.
Response: 49

---

# Measured On: human Y2 receptor (Homo sapiens)
# Construct: expressed in transfected cells; membrane fraction
# Sequence (P49146 1-381): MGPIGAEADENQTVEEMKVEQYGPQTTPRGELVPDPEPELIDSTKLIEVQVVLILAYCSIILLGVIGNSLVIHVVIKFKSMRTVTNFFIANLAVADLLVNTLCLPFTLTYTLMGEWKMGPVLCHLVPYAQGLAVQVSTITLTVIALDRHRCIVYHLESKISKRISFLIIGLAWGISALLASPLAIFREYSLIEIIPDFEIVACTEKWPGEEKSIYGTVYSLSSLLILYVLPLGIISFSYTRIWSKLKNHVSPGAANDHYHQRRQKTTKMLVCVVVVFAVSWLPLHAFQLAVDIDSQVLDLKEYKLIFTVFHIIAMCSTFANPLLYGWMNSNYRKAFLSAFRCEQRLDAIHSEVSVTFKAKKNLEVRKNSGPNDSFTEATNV
# Experiment Summary: Human Y2 Receptor G Protein Binding Assay (GBA), [35S]GTPγS
# Assay type: biochemical
# Stated Conditions: EC50 of test compound/EC50 of PYY(3-36) (PYY3-36 taken as 1), hY2R/CHO membrane fraction
Starred links: 1 amine or outer side, 2 acyl side, 3 side chain; linkers in the order of their positions; H or OH if unused. Non-standard residues stand in square brackets, D forms with d. Primed or numbered codes have the meaning given here. *: point of attachment. Ser(Me)″ = O-methylserine, COC[C@H](N[*:1])C(=O)[*:2]; Cha = N[C@@H](CC1CCCCC1)C(=O)O; Isobutyryl = CC(C)C(=O)*; Nva = CCC[C@H](N)C(=O)O; Abu = CC[C@H](N)C(=O)O; Aib = CC(C)(N)C(=O)O; Bz = O=C(c1ccccc1)*
Measured GBA EC50 Ratio by item
I'd appreciate a reply containing only the number, no unit.

These recorded examples may help you get a feel for the data.
Substance: Benzoyl-[Ser(Me)26, Cha27,28,36, Aib31]-PYY(25-36) (Bz-R[Ser(Me)″][Cha][Cha]NL[Aib]TRQR[Cha]-NH2; SMILES COC[C@H](NC(=O)[C@H](CCCNC(=N)N)NC(=O)c1ccccc1)C(=O)N[C@@H](CC1CCCCC1)C(=O)N[C@@H](CC1CCCCC1)C(=O)N[C@@H](CC(N)=O)C(=O)N[C@@H](CC(C)C)C(=O)NC(C)(C)C(=O)N[C@H](C(=O)N[C@@H](CCCNC(=N)N)C(=O)N[C@@H](CCC(N)=O)C(=O)N[C@@H](CCCNC(=N)N)C(=O)N[C@@H](CC1CCCCC1)C(N)=O)[C@@H](C)O) [compound No. 98]
GBA EC50 Ratio: 8.7
--
Substance: Isobutanoyl-[Abu26, Cha27,28,36, Abu30, Aib31]-PYY(25-36) (Isobutyryl-R[Abu][Cha][Cha]N[Abu][Aib]TRQR[Cha]-NH2; SMILES CC[C@H](NC(=O)[C@H](CCCNC(=N)N)NC(=O)C(C)C)C(=O)N[C@@H](CC1CCCCC1)C(=O)N[C@@H](CC1CCCCC1)C(=O)N[C@@H](CC(N)=O)C(=O)N[C@@H](CC)C(=O)NC(C)(C)C(=O)N[C@H](C(=O)N[C@@H](CCCNC(=N)N)C(=O)N[C@@H](CCC(N)=O)C(=O)N[C@@H](CCCNC(=N)N)C(=O)N[C@@H](CC1CCCCC1)C(N)=O)[C@@H](C)O) [compound No. 91]
GBA EC50 Ratio: 21
--
Substance: Isobutanoyl-[Abu26, Cha27,28,36, Ser30, Aib31]-PYY(25-36) (Isobutyryl-R[Abu][Cha][Cha]NS[Aib]TRQR[Cha]-NH2; SMILES CC[C@H](NC(=O)[C@H](CCCNC(=N)N)NC(=O)C(C)C)C(=O)N[C@@H](CC1CCCCC1)C(=O)N[C@@H](CC1CCCCC1)C(=O)N[C@@H](CC(N)=O)C(=O)N[C@@H](CO)C(=O)NC(C)(C)C(=O)N[C@H](C(=O)N[C@@H](CCCNC(=N)N)C(=O)N[C@@H](CCC(N)=O)C(=O)N[C@@H](CCCNC(=N)N)C(=O)N[C@@H](CC1CCCCC1)C(N)=O)[C@@H](C)O) [compound No. 89]
GBA EC50 Ratio: 28

Please look at the following substance next.
Query: Entry Benzoyl-[Nva27, Cha28,36, Aib31]-PYY(25-36) (Bz-RH[Nva][Cha]NL[Aib]TRQR[Cha]-NH2; SMILES CCC[C@H](NC(=O)[C@H](Cc1c[nH]cn1)NC(=O)[C@H](CCCNC(=N)N)NC(=O)c1ccccc1)C(=O)N[C@@H](CC1CCCCC1)C(=O)N[C@@H](CC(N)=O)C(=O)N[C@@H](CC(C)C)C(=O)NC(C)(C)C(=O)N[C@H](C(=O)N[C@@H](CCCNC(=N)N)C(=O)N[C@@H](CCC(N)=O)C(=O)N[C@@H](CCCNC(=N)N)C(=O)N[C@@H](CC1CCCCC1)C(N)=O)[C@@H](C)O) [compound No. 103] needs its GBA EC50 Ratio filled in; supply it.
Response: 8.6
